# Experimental system: T1, Anti-CD28 Fab (SEQ ID NOs: 696, 697)
# T1 construct: In the phage ELISA the Fab was biotinylated and captured on neutravidin coated plates
# T1 sequence (VH, as listed by the source, chain 1 of 2): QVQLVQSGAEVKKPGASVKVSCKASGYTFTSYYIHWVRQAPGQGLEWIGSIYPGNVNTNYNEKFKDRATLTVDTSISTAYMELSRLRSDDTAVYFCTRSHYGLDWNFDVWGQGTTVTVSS
# T1 sequence (VL, as listed by the source, chain 2 of 2): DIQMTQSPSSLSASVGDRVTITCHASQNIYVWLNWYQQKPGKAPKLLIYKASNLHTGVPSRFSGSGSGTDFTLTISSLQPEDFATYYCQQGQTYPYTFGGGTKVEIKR
# Measurement protocol: phage binding ELISA; biotinylated anti-CD28 Fab on neutravidin plate, clonal phage detected with anti-M13-HRP;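 note: crude clonal phage supernatants added briefly to wells preincubated in blocking buffer with or without CD28 antigen, then washed before detection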
Recorded metric: Anti-CD28 Fab (SEQ ID NOs: 696, 697) signal

> print(dat)
                                      binder  recorded.result
 1  TCSAGAMYSWPLCI (Peptide-92 library clone) [Phage-1677]             0.91
 2  ECGWEPGQHWRVCF (Peptide-92 library clone) [Phage-1685]             0.82
 3  QCAAGFSYTWPECY (Peptide-92 library clone) [Phage-1678]              0.9
 4  WCSAVFSYQWPPCF (Peptide-92 library clone) [Phage-1689]             0.78
 5  TCSAGAMYNWPECF (Peptide-92 library clone) [Phage-1676]             0.92
 6  WCAAFFHYPWPQCF (Peptide-92 library clone) [Phage-1679]             0.87
 7  SCSAGAMWLWPECF (Peptide-92 library clone) [Phage-1688]              0.8
 8  TCAAGATWVWPTCF (Peptide-92 library clone) [Phage-1675]             0.92
 9  SCAAGATYEWPTCL (Peptide-92 library clone) [Phage-1686]             0.81
10  RCKAGVPYKWPMCL (Peptide-92 library clone) [Phage-1680]             0.87
11  TCAAGATYEWPSCI (Peptide-92 library clone) [Phage-1681]             0.86
12  SCAAGATYKWPACF (Peptide-92 library clone) [Phage-1687]              0.8
13  TCAAGAKYVWPLCF (Peptide-92 library clone) [Phage-1682]             0.85
14  TCAAGASWDWPFCF (Peptide-92 library clone) [Phage-1684]             0.82
15  LCEAGFNYDWPRCL (Peptide-92 library clone) [Phage-1683]             0.85

Values were extracted from patent US20260242478A1.
